Origin of the recorded values: patent US5563142A

Test system: HIV in primary human peripheral blood lymphocytes
assay_info: Primary PBL assay: inhibition of viral replication (p24 & RNA)
Type: cell-based
condition_description: Human immunodeficiency virus 1, Lymphocyte, primary human lymphocytes infected with HIV, days three and four, read-out: PBL INHIBITION OF VIRAL REPLICATION (p24 & RNA) ED50
Structures can show the parent of a compound that is named as a salt.
assay_readout: EC50

Request: Give its EC50 value. Item: CCNc1cccnc1N1CCN(C(=O)c2cc3cc(F)ccc3[nH]2)CC1
Result: 3 to 10 nM

Request: Give its EC50 value. Item: CC(C)Nc1cccnc1N1CCN(C(=O)c2cc3cc(OCC(=O)O)ccc3[nH]2)CC1 [Example 61, sodium salt]
Result: 1000 nM

Request: Give its EC50 value. Item: CCNc1cccnc1N1CCCN(C(=O)c2cc3ccccc3[nH]2)CC1
Result: < 1 nM

Request: Give its EC50 value. Item: CC(C)Nc1cccnc1N(C)CCN(C)C(=O)c1cc2ccccc2[nH]1
Result: 100 to 1000 nM

Request: Give its EC50 value. Item: CNc1cccnc1N1CCN(C(=O)c2cc3cc(OC)ccc3[nH]2)CC1
Result: ≤ 1000 nM

Request: Give its EC50 value. Item: CCOC(=O)COc1ccc2[nH]c(C(=O)N3CCN(c4ncccc4NC(C)C)CC3)cc2c1
Result: 100 to 1000 nM

Request: Give its EC50 value. Item: O=C(c1cc2ccccc2[nH]1)N1CCN(c2ncccc2NCC2CC2)CC1
Result: 100 to 1000 nM

Request: Give its EC50 value. Item: CC(C)Nc1cccnc1OCCN(C)C(=O)c1cc2ccccc2[nH]1
Result: < 100 nM

Request: Give its EC50 value. Item: CCNc1cccnc1N1CCN(Cc2cc3ccccc3[nH]2)CC1
Result: 1000 nM

Request: Give its EC50 value. Item: COc1ccc2cc(C(=O)N3CCN(c4ncccc4NC(C)C)CC3)[nH]c2c1Br
Result: 100 to 1000 nM

Request: Give its EC50 value. Item: CCNc1cccnc1N1CCN(C(=O)c2cc3cc(OC)c(OC)cc3[nH]2)CC1
Result: 10 nM

Request: Give its EC50 value. Item: CCNc1cccnc1N1CCN(Cc2cc(C)c(O)c(C)c2)CC1
Result: ≥ 10000 nM

Request: Give its EC50 value. Item: CC(C)Nc1cccnc1N(C)CCCN(C)C(=O)c1cc2ccccc2[nH]1
Result: 1 to 10 nM

Request: Give its EC50 value. Item: COc1ccc2cc(C(=O)N3CCN(c4ncccc4NC(C)C)CC3)[nH]c2c1
Result: 10 nM

Request: Give its EC50 value. Item: CC(C)(C)CNc1cccnc1N1CCN(C(=O)c2cc3cc(F)ccc3[nH]2)CC1
Result: 10000 nM

Request: Give its EC50 value. Item: CCNc1cccnc1N1CCN(C(=O)c2cc3ccc(OC)c(C)c3[nH]2)CC1
Result: 10 to 100 nM

Request: Give its EC50 value. Item: CC(C)Nc1cccnc1N1CCN(C(=O)c2cc3ccc(N(C)C)cc3[nH]2)CC1
Result: < 1 nM

Request: Give its EC50 value. Item: CC(C)Nc1cncnc1N1CCN(C(=O)c2cc3cc(F)ccc3[nH]2)CC1
Result: 10 to 100 nM
